- Tested on: P. aeruginosa H374
- Format: cell-based, Pseudomonas aeruginosa
- condition_set: MIC of nalidixic acid with peptide at ¼ MIC
No end group written: not given here.
Consider the cut-off 2000 µg/mL. If the recorded MIC Nal-comb. is strictly smaller, the label is 1; if not, the label is -1.

query: Dear colleague, could you confirm whether MIC Nal-comb. of FALLKALLKKAL-NH2 [P177, FALLKALLKKAL-NH2] falls below 2000 µg/mL? Thanks.
result: -1

---

// S. epidermidis C621 MIC lookup, one value per entry
- Tested on: S. epidermidis C621
- Type: cell-based, Staphylococcus epidermidis
- condition_set: mean of three; 16 to 20 hours at 35° C.
No end group written: not given here.
Put your answer as a value accompanied by its unit after it.

FALALKKALKALKKAL-NH2 [P34] | 8 µg/mL
FALAKLAKKAKAKLKKALKAL-NH2 [P26] | 4 µg/mL
VAKKLAKLAKKLAKLAL-NH2 [P50] | 4 µg/mL
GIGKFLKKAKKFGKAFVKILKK-NH2 [P42, reference compound] | 2 µg/mL
FALAAKALKKLAKKLKKLAKKAL-NH2 [P23] | 16 µg/mL
FAKLLAKLAKKAL-NH2 [P54, FAKLLAKLAKKAL-NH2] | 8 µg/mL

Consider FAKLLALALKLKL-NH2 [P94] . Its measured S. epidermidis C621 MIC is 8 µg/mL

Consider FAKKLAKKLL-NH2 [P59] . Its measured S. epidermidis C621 MIC is 8 µg/mL

Consider FAKKLAKKLKKLAKKLAKKWKL-OH [P72] . Its measured S. epidermidis C621 MIC is 4 µg/mL

Consider VALALKALKKLLKKLKKLAKKAL-NH2 [P510] . Its measured S. epidermidis C621 MIC is 4 µg/mL

Consider FAKFLAKFLKKAL-NH2 [P111, FAKFLAKFLKKAL-NH2] . Its measured S. epidermidis C621 MIC is 4 µg/mL

Consider FAKLAKKLL-NH2 [P60] . Its measured S. epidermidis C621 MIC is 4 µg/mL

Consider FAKALKALLKALKAL-NH2 [P64] . Its measured S. epidermidis C621 MIC is 4 µg/mL

---

// S. pneumoniae MIC lookup, one value per entry
- Test system: S. pneumoniae C719
- method_summary: Antimicrobial assays II, NCCLS broth microdilution MIC
- Format: cell-based, Streptococcus pneumoniae
- condition_set: mean of three, in µg/mL
No end group written: not given here.
Please reply with the number alone, leaving off any unit.

These solved cases illustrate the format of a correct answer.
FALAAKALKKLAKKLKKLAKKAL-NH2 [P23] | 16
FAKKLAKKLKKLAKLALAK-NH2 [P41] | 32
FALLKALLKKAL-NH2 [P177, FALLKALLKKAL-NH2] | 16
FAKKLAKKLAKLL-NH2 [P75] | 64
FAKLLALALKLKL-NH2 [P94] | 128

Consider FAKKLKKLAKLAKKL-NH2 [P46] . Its measured S. pneumoniae MIC is 128

Consider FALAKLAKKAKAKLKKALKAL-NH2 [P26] . Its measured S. pneumoniae MIC is 16

Consider FALALKALKKLAKKLKKLAKKAL-NH2 [P25] . Its measured S. pneumoniae MIC is 8

Consider FAKKLAKLALKLAKL-NH2 [P44] . Its measured S. pneumoniae MIC is 16

Consider KYKKALKKLAKLL-NH2 [P146] . Its measured S. pneumoniae MIC is 128

Consider FALKALKKLKKALKKAL-NH2 [P153] . Its measured S. pneumoniae MIC is 8

Consider FAKFLAKFLKKAL-NH2 [P111, FAKFLAKFLKKAL-NH2] . Its measured S. pneumoniae MIC is 4
